Where do these numbers come from? They come from patent US5053418A.

experiment: in vivo; conditions: rat, acute oral, rats
Attribute Measured: LD50

Please report the recorded LD50 for CC(C)(C)C1CCC(C2=C(O)C(=O)c3ccccc3C2=O)CC1 (stereo not shown) .
> 1000 mg/kg
